# measuredTarget: Enzyme (kinases of Table 30) (Homo sapiens)
# testName: IC50 of Compound (nM) (ATP present at Km of enzyme), Table 30
# Type: biochemical
# conditionSet: Pim-3(h), ATP present at Km of enzyme; read-out: IC50 of Compound, Pim-3(h)
measurementType: pIC50
// returns pIC50 (minus log10 of molar concentration), number only

Some solved entries appear below for comparison.
> print(dat)
                                   molecule  resultvalue
1  O=C1NC(=O)/C(=C/c2ccnc(N3CCC(CNCc4ccncc4)CC3)n2)S1         7.66
2   O=C1NC(=O)/C(=C/c2ccnc(NCC3CCNCC3)n2)S1         7.51
3  O=C1NC(=O)/C(=C/c2ccnc(N3CCC(CNCc4cccc(-c5ccc(F)cc5)n4)CC3)n2)S1         6.96
4  CC1CC(C)CN(c2nccc(/C=C3\SC(=O)NC3=O)n2)C1 (stereo not drawn)         6.70
5  CN1CCC(CNc2nccc(/C=C3\SC(=O)NC3=O)n2)CC1         7.51
6  Nc1cccc2c1CCN(c1nccc(/C=C3\SC(=O)NC3=O)n1)C2         6.57
7   CN(c1nccc(/C=C2\SC(=O)NC2=O)n1)C1CCCCC1         6.57
8  O=C1NC(=O)/C(=C/c2ccnc(N[C@H]3CCCNC3)n2)S1         8.05

Now for the molecule whose pIC50 we want.
State its pIC50 on Enzyme (kinases of Table 30) (Homo sapiens): Cc1cc(CNCC2CCN(c3nccc(/C=C4\SC(=O)NC4=O)n3)CC2)c2ccccc2n1 7.47

---

# measuredTarget: Enzyme (kinases of Table 30)
# testName: IC50 of Compound (nM) (ATP present at Km of enzyme), Table 30
# Type: biochemical
# conditionSet: Pim-2(h), ATP present at Km of enzyme; read-out: IC50 of Compound, Pim-2(h)
measurementType: pIC50
// pIC50 here means minus log10 of the molar concentration (mol/L)

Bench note: what pIC50 did CN(C)CCOc1cc(/C=C2\SC(=O)NC2=O)nc(N2CCN(S(=O)(=O)c3ccccc3)CC2)n1 [compound 214] show? 7.46

---

# measuredTarget: Enzyme (kinases of Table 30) (Homo sapiens)
# testName: IC50 of Compound (nM) (ATP present at Km of enzyme), Table 30
# Format: biochemical
# conditionSet: Pim-1(h), ATP present at Km of enzyme; read-out: IC50 of Compound, Pim-1(h)
pIC50: −log10 of the molar value.
# binarize pIC50: threshold 7 inclusive, high side 1 (yes), low side 0 (no)

Please review the following examples before continuing.
> print(dat)
                                   molecule  classlabel
1  O=C1NC(=O)/C(=C/c2ccnc(NCC3CCNCC3)n2)S1 [compound 147]      0 (no)
2  O=C1NC(=O)/C(=C/c2ccnc(N3CCC(CNCc4ccc5ccccc5n4)CC3)n2)S1 [compound 180]     1 (yes)

API: above_or_equal(metric=pIC50, cutoff=7) for item CN(c1nccc(/C=C2\SC(=O)NC2=O)n1)[C@H]1CCCNC1 [compound 143] 1 (yes)

Decide: is the reported value of pIC50 for O=C1NC(=O)/C(=C/c2ccnc(N3CCC(CNc4ccc5ccccc5n4)CC3)n2)S1 [compound 219] equal to or greater than 7? 0 (no)

Record CN(c1nccc(/C=C2\SC(=O)NC2=O)n1)C1CCCCC1 [compound 119] ; criterion: pIC50 no lower than 7. Met? 0 (no)

Record O=C1NC(=O)/C(=C/c2ccnc(N3CCC(CNCc4cccnc4)CC3)n2)S1 [compound 176] ; criterion: pIC50 no lower than 7. Met? 0 (no)

pIC50 >= 7 for NCc1cccc(CNc2nccc(/C=C3\SC(=O)NC3=O)n2)c1 [compound 159] ? 0 (no)

Answer whether pIC50 of COc1cccc2ccc(CNCC3CCN(c4nccc(/C=C5\SC(=O)NC5=O)n4)CC3)nc12 [compound 189] is greater than or equal to 7. 1 (yes)

Can O=C1NC(=O)/C(=C/c2ccnc(N3CCC(CNCC4CCN4)CC3)n2)S1 (stereo not drawn) [compound 208] be said to have pIC50 at or above 7? 0 (no)

Please check the record O=C1NC(=O)/C(=C/c2ccnc(N3CCC(CCO)CC3)n2)S1 [compound 106] and state if its pIC50 is at or above 7. 0 (no)

Determine whether this molecule has pIC50 no lower than 7: O=C1NC(=O)/C(=C/c2ccnc(N3CCC(CNCc4ccc5cc(F)ccc5n4)CC3)n2)S1 [compound 191] 1 (yes)

Form field: pIC50 at least 7? Entry: O=C1NC(=O)/C(=C/c2ccnc(N3CCc4[nH]c5ccccc5c4C3)n2)S1 [compound 91] 0 (no)

Test whether the molecule CN1CCC(CNc2nccc(/C=C3\SC(=O)NC3=O)n2)CC1 [compound 92] records pIC50 of 7 or higher. 0 (no)

---

# System: cell lines
# testName: Selected cell proliferation inhibition data: cytotoxicity and IC50 determination (MTS/PMS, 72 hours), Tables 27 and 28
# Type: cell-based
# conditionSet: Homo sapiens; RPMI 8226 cell line, 72 hours, MTS; read-out: IC50 values, RPMI 8226
# Procedure: Selected Cell Proliferation Inhibition Data All cells were cultured in media supplemented with 10% FBS except for which are marked specially, in the temperature of 37° C., 5% CO2 and 95% humidity. […] • 1. The cells were harvested respectively during the logarithmic growth period and counted with hemocytometer. […] The appropriate cell density was determined and adjusted according to the results of the first test. • 4. […] Plates were cultured for another 72 hours, then measured by means of MTS assay. • 7. […]
pIC50: −log10 of the molar value.
Label rule, in plain words: pIC50 of 5 and up is Met, under 5 is Not met.

> print(dat)
                                querysmiles  classlabel
1  Nc1cccc2c1CCN(c1nccc(/C=C3\SC(=O)NC3=O)n1)C2         Met
2  Cc1ccc(N2CCN(c3nccc(/C=C4\SC(=O)NC4=O)n3)CC2)cc1     Not met
3  O=C1NC(=O)/C(=C/c2ccnc(N3CCC(CNCc4ccc5cc(F)ccc5n4)CC3)n2)S1         Met

I'd appreciate it if you could say whether Cc1cc(CNCC2CCN(c3nccc(/C=C4\SC(=O)NC4=O)n3)CC2)c2ccccc2n1 has pIC50 at least equal to 5. Met

---

# measuredTarget: Enzyme (kinases of Table 30)
# testName: IC50 of Compound (nM) (ATP present at Km of enzyme), Table 30
# Type: biochemical
# conditionSet: Pim-3(h), ATP present at Km of enzyme; read-out: IC50 of Compound, Pim-3(h)
measurementType: IC50 (nM)
Please give a number only; it is taken to be in nM.

Reported IC50 for CN(C)CCOc1cc(/C=C2\SC(=O)NC2=O)nc(N2CCN(S(=O)(=O)c3ccccc3)CC2)n1 : what is it? 60

---

# measuredTarget: Enzyme (kinases of Table 30) (Homo sapiens, UniProt Q9P1W9)
# Sequence (Q9P1W9 whole entry): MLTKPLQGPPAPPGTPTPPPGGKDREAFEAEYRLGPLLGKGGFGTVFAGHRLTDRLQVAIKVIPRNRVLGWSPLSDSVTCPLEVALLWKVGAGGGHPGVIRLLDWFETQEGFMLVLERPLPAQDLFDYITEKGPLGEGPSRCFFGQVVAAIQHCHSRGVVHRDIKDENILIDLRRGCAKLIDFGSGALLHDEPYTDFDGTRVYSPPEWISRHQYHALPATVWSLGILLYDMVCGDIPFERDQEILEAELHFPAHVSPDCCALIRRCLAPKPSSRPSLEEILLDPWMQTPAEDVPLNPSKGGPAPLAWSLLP
# testName: IC50 of Compound (nM) (ATP present at Km of enzyme), Table 30
# Format: biochemical
# conditionSet: Pim-2(h), ATP present at Km of enzyme; read-out: IC50 of Compound, Pim-2(h)
Recorded pIC50 for the following compounds
Lab note — pIC50 values are minus log10 of concentrations in M.

Some solved cases for reference:
> print(dat)
                                   compound  resultvalue
1  Nc1ccc2c(c1)CN(c1nccc(/C=C3\SC(=O)NC3=O)n1)CC2 [compound 90]         7.05
2  COc1cccc2ccc(CNCC3CCN(c4nccc(/C=C5\SC(=O)NC5=O)n4)CC3)nc12 [compound 189]         8.05
3  O=C1NC(=O)/C(=C/c2ccnc(N3CCC(CNCc4ccccn4)CC3)n2)S1 [compound 172]         6.85
4  Cc1cc(CNCC2CCN(c3nccc(/C=C4\SC(=O)NC4=O)n3)CC2)c2ccccc2n1 [compound 181]         7.36
5  CC1CCCN(c2nccc(/C=C3\SC(=O)NC3=O)n2)C1 (centres unmarked) [compound 117]         7.30
6  O=C1NC(=O)/C(=C/c2ccnc(N3CCC(CNCC4CCN4)CC3)n2)S1 (centres unmarked) [compound 208]         7.37

I'm curious: which pIC50 was measured for O=C1NC(=O)/C(=C/c2ccnc(NCC3CCNCC3)n2)S1 [compound 147] tested on Enzyme (kinases of Table 30) (Homo sapiens, UniProt Q9P1W9)? 7.05

GET /values?readout=pIC50&system=Enzyme (kinases of Table 30) (Homo sapiens, UniProt Q9P1W9)&item= O=C1NC(=O)/C(=C/c2ccnc(N3CCC(CNCc4ccc5ccccc5n4)CC3)n2)S1 [compound 180] 7.82
